// provenance: PubChem BioAssay (EPA / NIEHS)

- Tested on: guinea pig Histamine Receptor (H2), gene 100729734
- experimental-details: NVS_GPCR_gH2: NovaScreen (NVS) G Protein-Coupled Receptor Assay for guinea pig Histamine Receptor (H2) (AID 2283342)
Records with an inconclusive call do not appear. Active and inactive are the calls of the source. Rule for the calls: active = hit-call score of the fitted dose curve at least 0.9, where 1 is the maximum; inconclusive = response in the unintended direction; inactive = score below 0.9.
AC50 by entry:
assay-metric: AC50

>>> measured_value("NCc1cccc(C2CCN(C(=O)c3ccc(C#Cc4ccccc4F)o3)CC2)c1")
"12 µM (active)"
>>> measured_value("COc1cccc([C@H](O)C2CCN(CCc3ccc(F)cc3)CC2)c1OC")
"13.1 µM (active)"
>>> measured_value("COc1cc(C(=O)NC2CCN(C)CC2)ccc1Nc1ncc2c(n1)N(C1CCCC1)CC(F)(F)C(=O)N2C")
"4.77 µM (active)"
>>> measured_value("CCCCCCCCN(C)CCCCCCCC")
"14.5 µM (active)"
>>> measured_value("CN(C)c1ccc(C(=C2C=CC(=[N+](C)C)C=C2)c2ccc(N(C)C)cc2)cc1")
"0.827 µM (active)"

----------
- experimental-details: CEETOX_H295R_ESTRONE: CeeTox H295R High-throughput Steroidogenesis Assay for Estrone (AID 2283441);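 note: estrone secreted into medium measured by LC-MS/MS after dansyl derivatization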
- stated-conditions: actives raise or lower the signal
The source made the active and inactive calls. The calls were made as follows: active = hit-call score of the fitted dose curve at least 0.9, where 1 is the maximum; inactive = score below 0.9.
Classes used: active, inactive

>>> label("COc1cccc([C@H](O)C2CCN(CCc3ccc(F)cc3)CC2)c1OC")
"inactive"
>>> label("Clc1ccccc1C(c1ccccc1)(c1ccccc1)n1ccnc1")
"active"
>>> label("CC(C)(C)c1cc(/C=C2\\SC(N)=NC2=O)cc(C(C)(C)C)c1O")
"inactive"
>>> label("CC(=O)N1CCN(c2ccc(OC[C@H]3CO[C@](Cn4ccnc4)(c4ccc(Cl)cc4Cl)O3)cc2)CC1")
"active"
>>> label("CN1C(=O)N(c2ccccc2Br)Cc2cnc(Nc3ccc4c(c3)OCC(CO)O4)nc21 (stereo not given)")
"active"

----------
- experimental-details: BSK_SAg_SRB: Viability Assessment in the BioMAP Diversity Plus: SAg Assay (AID 2283096);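 note: cells read one day after compound addition; hits may be either gain or loss of signal compared with DMSO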
- stated-conditions: primary human HUVEC with PBMC
Calls of active or inactive are those of the source. How the source made its calls: active means hit-call score of the fitted dose curve at least 0.9, where 1 is the maximum; inactive means score below 0.9.
assay-metric: AC50

>>> measured_value("Clc1ccccc1C(c1ccccc1)(c1ccccc1)n1ccnc1")
"24.4 µM (active)"
>>> measured_value("CC(C)(C)c1csc(-c2cc3cc(OCc4ccccc4CC(=O)O)ccc3o2)n1")
"20 µM (active)"
>>> measured_value("O=C1c2ccccc2C(=O)N1CCc1noc(-c2ccc(CN3CCCCCC3)s2)n1")
"inactive"
>>> measured_value("O=C(OCCCCCCOC(=O)c1ccccc1)c1ccccc1")
"inactive"
>>> measured_value("CCO[Si](CCCNC(N)=O)(OCC)OCC")
"inactive"
>>> measured_value("CN1C(=O)CC[C@H]1c1cccnc1")
"inactive"
>>> measured_value("O=c1[nH]sc2ccccc12")
"26.8 µM (active)"
>>> measured_value("Cc1ccc2oc(CN(Cc3ccccc3)C(=O)Nc3c(F)cc(F)cc3F)c(-c3ccc(Cl)cc3)c2c1")
"inactive"
>>> measured_value("CCCCCc1ccc(N)cc1")
"inactive"
>>> measured_value("O=C1O[C@H]([C@@H](O)CO)C(O)=C1O")
"inactive"
>>> measured_value("O=c1ccc2ccccc2o1")
"inactive"
>>> measured_value("C[C@]12CC[C@@H]3c4ccc(O)cc4CC[C@H]3[C@@H]1CCC2=O")
"inactive"

----------
- study-system: Hypoxia-inducible factor 1-alpha (Homo sapiens)
- experimental-details: ATG_HIF1a_CIS: Attagene CIS-FACTORIAL HepG2 Assay for human Hypoxia Inducible Factor 1 (HIF1A) (AID 2282951)
- stated-conditions: HepG2 Attagene cis-factorial HIF1a reporter transcription; actives raise or lower the signal
The source made the active and inactive calls. How the source made its calls: active means hit-call score of the fitted dose curve at least 0.9, where 1 is the maximum; inactive means score below 0.9.
Classes used: 1.0 = active, 0.0 = inactive

>>> label("CC(O)CC(C)(C)O (centres undefined)")
0.0
>>> label("COc1ccc2cc(S(=O)(=O)N[C@H](CC(=O)N[C@H](Cc3ccc(CN4[C@H](C)CCC[C@@H]4C)cc3)C(=O)N(C)C(C)C)c3ccc4c(c3)OCO4)ccc2c1")
1.0
>>> label("CCO[Si](CCCNC(N)=O)(OCC)OCC")
1.0
>>> label("O=C(Nc1ccc(Cl)cc1)Nc1ccc(Cl)c(Cl)c1")
0.0
>>> label("CCCCCCCCCCCCO")
0.0
>>> label("Cc1cc(F)ccc1-c1cc(N2CC[C@@H](O)[C@H]2CO)ncc1N(C)C(=O)C(C)(C)c1cc(C(F)(F)F)cc(C(F)(F)F)c1")
0.0
>>> label("CC(C)(O)c1ccc(CNC(=O)c2cccnc2Oc2ccc3nonc3c2)cc1")
0.0
>>> label("CN1C(=O)N(c2ccccc2Br)Cc2cnc(Nc3ccc4c(c3)OCC(CO)O4)nc21 (centres undefined)")
1.0
>>> label("CN(C[C@@H](CC[N+]12CCC(C3CCCCC3)(CC1)CC2)c1ccc(Cl)c(Cl)c1)C(=O)c1cc(C(F)(F)F)cc(C(F)(F)F)c1")
0.0
>>> label("CCCCCCCCCCCO")
0.0
>>> label("NC(=O)c1nc(-c2cccc(-c3cc(F)ccc3OCC(F)(F)C(F)(F)F)c2)n[nH]1")
1.0
>>> label("CC/C(=C(/CC)c1ccc(O)cc1)c1ccc(O)cc1")
0.0
>>> label("NCc1cccc(C2CCN(C(=O)c3ccc(C#Cc4ccccc4F)o3)CC2)c1")
0.0
>>> label("CC(C)(C)c1csc(-c2cc3cc(OCc4ccccc4CC(=O)O)ccc3o2)n1")
0.0

----------
- Read-out: Pselectin, SELP (gene 6403)
- experimental-details: BSK_4H_Pselectin: BioMAP Diversity Plus: 4H Assay for Pselectin Biomarker Activity (AID 2283026)
- stated-conditions: primary human endothelial cells (HUVEC); actives raise or lower the signal
Activity calls are given as the source filed them. Rule for the calls: active = hit-call score of the fitted dose curve at least 0.9, where 1 is the maximum; inactive = score below 0.9.
Classes used: active, inactive

>>> label("Cc1cccc2ccccc12")
"inactive"
>>> label("CN(C)C(=O)C1(N2CCCCC2)CCN(CC[C@@]2(c3ccc(Cl)c(Cl)c3)CN(C(=O)c3ccccc3)CCO2)CC1")
"active"
>>> label("CCCCOC(=O)c1ccc(O)cc1")
"inactive"
>>> label("CN1C(=O)CC[C@H]1c1cccnc1")
"inactive"
>>> label("NCc1cccc(C2CCN(C(=O)c3ccc(C#Cc4ccccc4F)o3)CC2)c1")
"active"
>>> label("Oc1ccc2ccccc2c1")
"inactive"

----------
- study-system: human CYP1A1, CYP1A1 (gene 1543)
- experimental-details: NVS_ADME_hCYP1A1: NovaScreen (NVS) CYP450-related Enzyme Activity (ADME) Assay for human CYP1A1 (AID 2283100)
Results filed as inconclusive are left out. The source made the active and inactive calls. Rule for the calls: active = hit-call score of the fitted dose curve at least 0.9, where 1 is the maximum; inconclusive = response in the unintended direction; inactive = score below 0.9.
Classes used: active, inactive

>>> label("Clc1cc(Cl)c2c(c1)N=C1CCCCCN1C2")
"active"
>>> label("COc1ccc2cc(S(=O)(=O)N[C@H](CC(=O)N[C@H](Cc3ccc(CN4[C@H](C)CCC[C@@H]4C)cc3)C(=O)N(C)C(C)C)c3ccc4c(c3)OCO4)ccc2c1")
"inactive"
>>> label("O=c1[nH]sc2ccccc12")
"active"
>>> label("CN(C)c1ccc(C(=C2C=CC(=[N+](C)C)C=C2)c2ccc(N(C)C)cc2)cc1")
"active"
>>> label("O=C1c2ccccc2C(=O)N1CCc1noc(-c2ccc(CN3CCCCCC3)s2)n1")
"active"
>>> label("CN(C[C@@H](CC[N+]12CCC(C3CCCCC3)(CC1)CC2)c1ccc(Cl)c(Cl)c1)C(=O)c1cc(C(F)(F)F)cc(C(F)(F)F)c1")
"active"
>>> label("NCc1cccc(C2CCN(C(=O)c3ccc(C#Cc4ccccc4F)o3)CC2)c1")
"active"

----------
- experimental-details: STM_H9_NormalizedViability: Cytotoxicity Assessment at 120 hours in the Stemina devTOX quickPredict H9 human embryonic stem cell (hESC)-based Assay (AID 2283784)
Records with an inconclusive call do not appear. Active and inactive are the calls of the source. How the source made its calls: active means hit-call score of the fitted dose curve at least 0.9, where 1 is the maximum; inconclusive means response in the unintended direction; inactive means score below 0.9.
Classes used: 1 = active, -1 = inactive

>>> label("CN(C)C(=O)C1(N2CCCCC2)CCN(CC[C@@]2(c3ccc(Cl)c(Cl)c3)CN(C(=O)c3ccccc3)CCO2)CC1")
1
>>> label("COc1cccc([C@H](O)C2CCN(CCc3ccc(F)cc3)CC2)c1OC")
-1
>>> label("CN(C)c1ccc(C(=C2C=CC(=[N+](C)C)C=C2)c2ccc(N(C)C)cc2)cc1")
1
>>> label("CC(C)(c1cc(Br)c(O)c(Br)c1)c1cc(Br)c(O)c(Br)c1")
-1
>>> label("CCCCCCCCCCCC[N+](C)(C)C")
1
>>> label("CCCCCCCCN(C)CCCCCCCC")
-1
>>> label("O=C(Nc1ccc(Cl)cc1)Nc1ccc(Cl)c(Cl)c1")
-1
>>> label("O=c1c(-c2ccc(O)cc2)coc2cc(O)cc(O)c12")
1
>>> label("CN1C(=O)N(c2ccccc2Br)Cc2cnc(Nc3ccc4c(c3)OCC(CO)O4)nc21 (stereo unspecified)")
1
>>> label("OCCO")
-1
>>> label("COc1cc(C(=O)NC2CCN(C)CC2)ccc1Nc1ncc2c(n1)N(C1CCCC1)CC(F)(F)C(=O)N2C")
1
